Origin of the recorded values: paper PMC7004070

- Assayed System: human full-length FXR (Homo sapiens)
- Sequence (Q96RI1 whole entry): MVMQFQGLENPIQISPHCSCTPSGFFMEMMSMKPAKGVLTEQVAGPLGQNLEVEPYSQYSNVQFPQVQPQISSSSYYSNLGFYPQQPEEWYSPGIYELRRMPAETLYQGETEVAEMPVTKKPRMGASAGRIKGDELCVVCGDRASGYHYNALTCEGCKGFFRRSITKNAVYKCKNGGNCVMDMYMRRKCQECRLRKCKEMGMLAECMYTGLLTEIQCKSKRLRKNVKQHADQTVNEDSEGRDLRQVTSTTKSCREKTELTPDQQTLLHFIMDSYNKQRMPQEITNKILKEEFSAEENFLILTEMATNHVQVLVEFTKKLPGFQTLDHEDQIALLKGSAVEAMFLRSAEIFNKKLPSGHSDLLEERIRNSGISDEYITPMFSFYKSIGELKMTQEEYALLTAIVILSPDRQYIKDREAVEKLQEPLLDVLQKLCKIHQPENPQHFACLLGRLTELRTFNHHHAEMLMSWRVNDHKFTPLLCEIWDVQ
- Sequence (P19793 whole entry partner): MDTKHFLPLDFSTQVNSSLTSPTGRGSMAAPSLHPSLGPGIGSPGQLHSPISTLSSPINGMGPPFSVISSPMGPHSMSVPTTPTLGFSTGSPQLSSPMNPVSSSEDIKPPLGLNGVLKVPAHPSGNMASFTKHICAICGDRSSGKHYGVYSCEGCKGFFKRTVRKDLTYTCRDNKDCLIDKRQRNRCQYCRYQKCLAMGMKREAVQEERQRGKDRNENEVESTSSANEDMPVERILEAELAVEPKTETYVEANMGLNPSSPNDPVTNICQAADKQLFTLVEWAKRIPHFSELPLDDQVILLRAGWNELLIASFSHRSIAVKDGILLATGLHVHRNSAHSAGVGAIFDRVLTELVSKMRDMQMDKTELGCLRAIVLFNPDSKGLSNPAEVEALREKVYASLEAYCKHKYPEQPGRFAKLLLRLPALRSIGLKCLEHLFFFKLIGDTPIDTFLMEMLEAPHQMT
- Experimental Protocol: full-length FXR-BSEP reporter gene assay
- Format: cell-based
- Conditions Used: HeLa, read-out: FXR max. rel. act.
Quantity Measured: Emax

Q. Dear colleague, please send me the reported Emax for CC(C)(C)c1ccc(C(=O)Nc2ccc3ccn(Cc4ccc(C(=O)O)cc4)c3c2)cc1 when you can.
A. 24%

Q. Look up and report measured Emax for this entry: COc1cc(C(=O)O)ccc1Cc1cn(C)c2ccc(NC(=O)c3ccncc3)cc12
A. 15%

Q. Item Cn1cc(Cc2cccc(C(=O)O)c2)c2cc(NC(=O)c3ccc(C(C)(C)C)cc3)ccc21 : provide Emax
A. 18%

Q. Quick one: give measured Emax for COc1cc(C(=O)O)ccc1Cn1ccc2ccc(NC(=O)c3ccc(C(C)(C)C)cc3)cc21
A. 15%
